measured_on: human GnRH receptor (Homo sapiens, UniProt P30968)
Construct: expressed in transfected cells; host or cells: HEK 293 (hGnRH-R/293, from Dr. Stuart Sealfon)
Sequence (P30968 1-328): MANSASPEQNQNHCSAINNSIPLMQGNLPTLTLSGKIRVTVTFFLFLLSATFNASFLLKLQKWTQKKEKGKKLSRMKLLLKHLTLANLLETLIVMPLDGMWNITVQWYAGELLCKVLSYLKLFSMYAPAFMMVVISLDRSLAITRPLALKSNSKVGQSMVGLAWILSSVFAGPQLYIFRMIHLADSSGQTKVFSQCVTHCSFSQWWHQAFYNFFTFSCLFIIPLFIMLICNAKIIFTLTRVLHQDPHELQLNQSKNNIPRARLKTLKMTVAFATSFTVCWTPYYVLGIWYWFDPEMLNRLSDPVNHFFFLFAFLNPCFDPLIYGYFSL
assay_notes: Radioligand binding, 125I-GnRH-A displacement, membranes of HEK 293 cells with human GnRH receptor
study_conditions: 1 h, repeat of % Inhib. at 1 uM; read-out: Repeats @ 1 uM hGnRH
observation_type: inhibition at 1 µM (%)
One number for each entry, in %.

Illustrative cases are given below, each with its answer.
COc1ccccc1CC(C)N(C)C(=O)c1ccc(Cc2cc3c(cc2C)C(C)(C)CCC3(C)C)o1 (stereo not shown) :: 15
Cc1cc2c(cc1Cc1ccc(C(=O)NC3CC3)o1)C(C)(C)CCC2(C)C [drawing 1149] :: 58
Cc1cc2c(cc1Cc1ccc(C(=O)NCc3ccc(Br)cc3)o1)C(C)(C)CCC2(C)C [drawing 1234] :: 52
Cc1cc2c(cc1Cc1ccc(C(=O)NCc3ccc(F)cc3)o1)C(C)(C)CCC2(C)C [drawing 1135] :: 71
Cc1cc2c(cc1Cc1ccc(C(=O)NCCCN3CCCC3=O)o1)C(C)(C)CCC2(C)C [drawing 1131] :: 71
Cc1cc2c(cc1Cc1ccc(C(=O)NC(CO)c3ccccc3)o1)C(C)(C)CCC2(C)C (stereo not shown) :: 26
Cc1cc2c(cc1Cc1ccc(C(=O)NCc3cccc(Br)c3)o1)C(C)(C)CCC2(C)C [drawing 1235] :: 68
Cc1cc2c(cc1Cc1ccc(C(=O)NCCc3ccc([N+](=O)[O-])cc3)o1)C(C)(C)CCC2(C)C [drawing 1057] :: 44

Report inhibition at 1 µM for each item below.
1. Cc1ccc(CCNC(=O)c2ccc(Cc3cc4c(cc3C)C(C)(C)CCC4(C)C)o2)cc1 [drawing 1193]
2. Cc1cc2c(cc1Cc1ccc(C(=O)NCc3cccc(-c4ccccc4)c3)o1)C(C)(C)CCC2(C)C [drawing 1190]
3. Cc1cc2c(cc1Cc1ccc(C(=O)NCc3ccccc3Br)o1)C(C)(C)CCC2(C)C [drawing 1223]
4. COc1ccc(C(O)C(CO)NC(=O)c2ccc(Cc3cc4c(cc3C)C(C)(C)CCC4(C)C)o2)cc1 (stereo not shown)
5. Cc1cc2c(cc1Cc1ccc(C(=O)N(C)CC(O)c3ccccc3)o1)C(C)(C)CCC2(C)C (stereo not shown)
6. Cc1cc2c(cc1Cc1ccc(C(=O)N(CCc3ccccc3)Cc3ccccc3O)o1)C(C)(C)CCC2(C)C

Result:
[52, -6, 60, 24, 22, -30]

Report inhibition at 1 µM for each item below.
1. Cc1cc2c(cc1Cc1ccc(C(=O)N(Cc3ccccc3F)C3CCN(Cc4ccccc4)C3)o1)C(C)(C)CCC2(C)C (stereo not shown)
2. Cc1cc2c(cc1Cc1ccc(C(=O)NCCCCNc3nccc(NCC4CCCO4)n3)o1)C(C)(C)CCC2(C)C (stereo not shown) [drawing 1047]

Result:
[9, 38]

Data credit: patent US7101878B1
